Reference for the values: patent US20020132817A1

Would you kindly list melting point for each of these compounds?

Examples from the recorded data:
INSERT INTO results (compound, reported) VALUES
  ('Cc1ccc(-c2c3n(c(=O)c4ncccc24)CC[C@@H](C)CN(Cc2cc(C)cc(C)c2)C3=O)cc1', '200 to 202 °C'),
  ('Cc1ccc(-c2ccnc3c2C(=O)N(Cc2cc(C(F)(F)F)cc(C(F)(F)F)c2)C[C@H](C)CO3)cc1 [Reference Example 136]', '159 to 160 °C'),
  ('COc1cc(CN2C[C@H](C)CCn3c(c(-c4ccc(F)cc4)c4cccnc4c3=O)C2=O)cc(OC)c1', '192 to 193 °C');

Lookup result for Cc1cnc2c(c1-c1ccccc1)C(=O)N(Cc1cc(C(F)(F)F)cc(C(F)(F)F)c1)C[C@@H](C)CO2 [Reference Example 86] ; measured melting point: 147 to 149 °C
